Notes on Ki obtained with Human immunodeficiency virus type 1 protease (Human immunodeficiency virus 1).
Expressed in nM, but write only the number.

Exam item: Item under review: O=C(NC1c2ccccc2C[C@H]1O)[C@H](Cc1ccccc1)C[C@H](O)CN1C(=O)N(Cc2cccc(F)c2)CC1Cc1ccccc1 (stereo not given in full) . Reported Ki?
Marked response: 3.2

Exam item: Could you do the same for CS(=O)(=O)c1ccc(CN2CC(Cc3ccccc3)N(C[C@@H](O)C[C@@H](Cc3ccccc3)C(=O)NC3c4ccccc4C[C@H]3O)C2=O)cc1 (stereo not given in full) , please?
Marked response: 300

Exam item: Could you do the same for O=C(NC1c2ccccc2C[C@H]1O)[C@H](Cc1ccccc1)C[C@H](O)CN1C(=O)[C@@H](Cc2ccccc2)CC1Cc1ccccc1 (stereo not given in full) , please?
Marked response: 0.06

Exam item: Could you do the same for COc1ccc(CN2CC(Cc3ccccc3)N(C[C@@H](O)C[C@@H](Cc3ccccc3)C(=O)NC3c4ccccc4C[C@H]3O)C2=O)cc1 (stereo not given in full) , please?
Marked response: 5.6

Exam item: Could you do the same for O=C(NC1c2ccccc2C[C@H]1O)[C@H](Cc1ccccc1)C[C@H](O)CN1C(=O)N(Cc2ccccn2)CC1Cc1ccccc1 (stereo not given in full) , please?
Marked response: 41

Exam item: Could you do the same for Cc1cc(CN2CC(Cc3ccccc3)N(C[C@@H](O)C[C@@H](Cc3ccccc3)C(=O)NC3c4ccccc4C[C@H]3O)C2=O)cc(C)c1C (stereo not given in full) , please?
Marked response: 100

Exam item: Could you do the same for O=C(NC1c2ccccc2C[C@H]1O)[C@H](Cc1ccccc1)C[C@H](O)CN1C(=O)N(Cc2ccncc2)CC1Cc1ccccc1 (stereo not given in full) , please?
Marked response: 190

Exam item: Could you do the same for O=C(NC1c2ccccc2C[C@H]1O)[C@H](Cc1ccccc1)C[C@H](O)CN1C(=O)N(Cc2cccnc2)CC1Cc1ccccc1 (stereo not given in full) , please?
Marked response: 18

Exam item: Could you do the same for O=C(NC1c2ccccc2C[C@H]1O)[C@H](Cc1ccccc1)C[C@H](O)CN1C(=O)N(Cc2ccccc2)CC1Cc1ccccc1 (stereo not given in full) , please?
Marked response: 1.2

Exam item: Could you do the same for C[C@]1(Cc2ccccc2)C[C@H](Cc2ccccc2)N(C[C@@H](O)C[C@@H](Cc2ccccc2)C(=O)N[C@H]2c3ccccc3C[C@H]2O)C1=O , please?
Marked response: 170
